target: Adrenergic receptor alpha-2 (Homo sapiens) (UniProt P08913+P18825+P18089); experiment: Index is the ratio between ED50 value of Norepinephrine to test compound at alpha-2 adrenergic receptor
Measured Ratio accompanies every entry in the list below.
Write the value as a bare number.

>>> df
                                   molecule  datavalue
0  Br.Oc1ccc2c(c1O)CCCCC2C1=NCCN1 (centres undefined)       0.03

Enquiry: Which measured Ratio value corresponds to Br.Oc1ccc2c(c1O)CCC2C1=NCCN1 (centres undefined) ?
Return: 22

Enquiry: Reported Ratio, molecule Br.Oc1ccc2c(c1O)CC2C1=NCCN1 (centres undefined) : ____
Return: 1.8

Enquiry: State the recorded Ratio for this entry: Br.Oc1ccc2c(c1O)CCCC2C1=NCCN1 (centres undefined)
Return: 188

---

Entries and their Ki values follow.
molecular target: Adrenergic receptor alpha-1 (Rattus norvegicus, UniProt P15823+P23944+P43140); experiment: The compound was evaluated for the inhibition of [3H]prazosin binding to alpha-1 adrenergic receptor from rat liver
Lab book: enter the figure in nM, no units written.

Below: 3 compounds and their reported Ki.
>>> print(df.to_string())
                                   compound  parameter  datavalue
0  Br.Oc1ccc2c(c1O)CCCCC2C1=NCCN1 (centres undefined)         Ki      13000
1  Br.Oc1ccc2c(c1O)CC2C1=NCCN1 (centres undefined)         Ki       1100
2  Br.Oc1ccc2c(c1O)CCC2C1=NCCN1 (centres undefined)         Ki        350

Now for a further compound.
Enquiry: Item Br.Oc1ccc2c(c1O)CCCC2C1=NCCN1 (centres undefined) with Adrenergic receptor alpha-1 (Rattus norvegicus, UniProt P15823+P23944+P43140) - Ki?
Return: 400

---

Molecular target: Adrenergic receptor alpha-2 (Rattus norvegicus, UniProt P22086+P19328+P22909)
Sequence (P22086 whole entry): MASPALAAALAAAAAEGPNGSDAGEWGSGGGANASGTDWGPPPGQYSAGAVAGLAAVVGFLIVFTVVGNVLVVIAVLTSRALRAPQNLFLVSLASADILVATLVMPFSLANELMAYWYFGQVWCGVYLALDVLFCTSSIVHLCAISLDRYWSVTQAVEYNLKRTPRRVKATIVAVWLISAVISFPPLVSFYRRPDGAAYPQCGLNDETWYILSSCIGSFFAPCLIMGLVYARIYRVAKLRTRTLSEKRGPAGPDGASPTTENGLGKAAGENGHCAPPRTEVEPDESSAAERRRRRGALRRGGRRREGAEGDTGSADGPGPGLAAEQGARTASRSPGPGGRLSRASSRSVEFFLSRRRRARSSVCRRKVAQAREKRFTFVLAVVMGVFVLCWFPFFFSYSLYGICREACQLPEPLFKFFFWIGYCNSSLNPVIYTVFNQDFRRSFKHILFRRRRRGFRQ
Sequence (P19328 whole entry): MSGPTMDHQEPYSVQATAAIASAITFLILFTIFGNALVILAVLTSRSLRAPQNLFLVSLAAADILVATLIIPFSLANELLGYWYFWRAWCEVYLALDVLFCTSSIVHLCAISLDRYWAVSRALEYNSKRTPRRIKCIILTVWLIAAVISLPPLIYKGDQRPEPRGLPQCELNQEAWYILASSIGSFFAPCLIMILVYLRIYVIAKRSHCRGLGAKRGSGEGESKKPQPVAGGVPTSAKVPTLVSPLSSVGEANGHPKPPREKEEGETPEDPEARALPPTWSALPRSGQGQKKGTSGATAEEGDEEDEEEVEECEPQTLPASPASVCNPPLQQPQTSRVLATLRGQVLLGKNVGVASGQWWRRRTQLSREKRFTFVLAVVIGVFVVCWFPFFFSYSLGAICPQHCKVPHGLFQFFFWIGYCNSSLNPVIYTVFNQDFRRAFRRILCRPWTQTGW
Sequence (P22909 whole entry): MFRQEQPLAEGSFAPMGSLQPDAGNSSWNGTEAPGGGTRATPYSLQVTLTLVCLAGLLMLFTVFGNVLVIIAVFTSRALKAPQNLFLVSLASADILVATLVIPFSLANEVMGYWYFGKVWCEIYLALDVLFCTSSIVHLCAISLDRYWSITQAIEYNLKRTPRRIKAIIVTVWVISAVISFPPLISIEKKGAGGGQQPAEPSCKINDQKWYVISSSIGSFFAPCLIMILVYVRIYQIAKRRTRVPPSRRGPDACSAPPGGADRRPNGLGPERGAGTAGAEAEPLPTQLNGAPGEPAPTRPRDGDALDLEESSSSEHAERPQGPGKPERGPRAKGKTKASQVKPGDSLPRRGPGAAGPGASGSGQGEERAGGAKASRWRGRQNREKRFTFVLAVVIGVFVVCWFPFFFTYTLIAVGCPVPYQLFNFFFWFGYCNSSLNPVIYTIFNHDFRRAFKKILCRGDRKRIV
Assay: The compound was evaluated for the inhibition of [3H]rauwolscine binding to alpha-2-adrenergic receptor from rat cortex
parameter: IC50 (nM)
Respond numerically; units are nM and should not be typed.

>>> print(df.to_string())
                                   compound  parameter  readoutunits  datavalue
0  Br.Oc1ccc2c(c1O)CCCCC2C1=NCCN1 (centres undefined)       IC50            nM       4200
1  Br.Oc1ccc2c(c1O)CC2C1=NCCN1 (centres undefined)       IC50            nM         49
2  Br.Oc1ccc2c(c1O)CCC2C1=NCCN1 (centres undefined)       IC50            nM        3.3

Let us examine a further case.
Enquiry: Any idea what its IC50 is? The compound is Br.Oc1ccc2c(c1O)CCCC2C1=NCCN1 (centres undefined)
Return: 7
